Value source: patent US10364238B2

Biological target: Human plasma kallikrein (Homo sapiens (Human), UniProt P03952)
Sequence (P03952 391-638): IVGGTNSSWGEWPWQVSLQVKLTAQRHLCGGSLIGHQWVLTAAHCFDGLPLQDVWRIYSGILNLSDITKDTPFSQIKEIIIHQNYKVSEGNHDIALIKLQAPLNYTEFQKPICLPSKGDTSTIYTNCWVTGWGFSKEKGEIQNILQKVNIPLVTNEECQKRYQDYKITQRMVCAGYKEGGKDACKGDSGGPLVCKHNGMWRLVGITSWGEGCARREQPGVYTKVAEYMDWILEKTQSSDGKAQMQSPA
Sequence (P03952 20-390 partner): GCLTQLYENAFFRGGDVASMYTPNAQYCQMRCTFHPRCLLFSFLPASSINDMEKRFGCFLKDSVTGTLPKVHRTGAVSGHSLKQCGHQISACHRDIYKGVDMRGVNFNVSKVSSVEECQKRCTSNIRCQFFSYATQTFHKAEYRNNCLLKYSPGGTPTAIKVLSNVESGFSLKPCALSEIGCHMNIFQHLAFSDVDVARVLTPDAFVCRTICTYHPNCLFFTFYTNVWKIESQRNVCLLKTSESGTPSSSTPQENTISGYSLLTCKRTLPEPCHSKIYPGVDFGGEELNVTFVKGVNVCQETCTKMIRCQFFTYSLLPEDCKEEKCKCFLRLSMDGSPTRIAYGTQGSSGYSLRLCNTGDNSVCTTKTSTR
Test: Determination of the IC50 for plasma kallikrein
Details: 25° C., fluorogenic substrate H-DPro-Phe-Arg-AFC; read-out: IC50 (human PKaI)
pIC50: −log10 of the molar value.
Recorded Endpoint: pIC50

Past entries and their recorded results:
>>> result_value("COCc1nn(Cc2ccc(Cn3ccccc3=O)cc2)cc1C(=O)NCc1cc(OC)ccc1C(F)(F)F")
7.83
>>> result_value("COCc1nn(Cc2ccc(Cn3ccccc3=O)cc2)cc1C(=O)NCc1c(C)cccc1F")
6.82

P: COCc1nn(Cc2ccc(Cn3ccccc3=O)cc2)cc1C(=O)NCc1ccccc1C(=O)OC
Q: Cc1cnn(Cc2ccc(Cn3cc(C(=O)NCc4cc(Cl)ccc4F)c(C(F)(F)F)n3)cc2)c1
Hi, I'm comparing P with Q and wondering which one has the bigger number for pIC50. Any idea? Respond with the label that goes with your answer. Q
